- System: S. aureus Col8A (Meth^S)(lac^-)
- assay_overview: In vitro antibacterial evaluation, MIC by agar dilution, S. aureus Col8A
- Format: cell-based
- particulars: Staphylococcus aureus
Measured MIC of individual entries
property_label: MIC (µg/mL)

compound	assay_system	rel	experimental_value
O=C(Cc1ccccc1)N[C@@H]1C(=O)N2C(C(=O)O)=C(Sc3ccc(Br)cc3-c3ccccc3)CS[C@H]12 [Cmpd 14]	S. aureus Col8A (Meth^S)(lac^-)	=	0.25
Cn1nnnc1SCc1ccccc1SC1=C(C(=O)O)N2C(=O)[C@@H](NC(=O)Cc3ccccc3)[C@H]2SC1 [Cmpd 71]	S. aureus Col8A (Meth^S)(lac^-)	<	0.25
Nc1nc(/C(=N/O)C(=O)N[C@@H]2C(=O)N3C(C(=O)O)=C(Sc4ccccc4I)CS[C@H]23)cs1 [Cmpd 22]	S. aureus Col8A (Meth^S)(lac^-)	=	0.5
N#CCC(=O)N[C@@H]1C(=O)N2C(C(=O)O)=C(Sc3ccnn3-c3ccccc3)CS[C@H]12 [Cmpd 88]	S. aureus Col8A (Meth^S)(lac^-)	<	0.25
O=C(Cc1ccccc1)N[C@@H]1C(=O)N2C(C(=O)O)=C(Sc3ccnn3-c3ccc(F)cc3)CS[C@H]12 [Cmpd 123]	S. aureus Col8A (Meth^S)(lac^-)	≤	0.06
O=C(Cc1ccccc1)N[C@@H]1C(=O)N2C(C(=O)O)=C(Sc3cc(F)ccc3Br)CS[C@H]12 [Cmpd 33]	S. aureus Col8A (Meth^S)(lac^-)	<	0.25
Nc1nc(/C(=N/OCCF)C(=O)N[C@@H]2C(=O)N3C(C(=O)O)=C(Sc4ccnn4-c4ccccc4)CS[C@H]23)cs1 [Cmpd 90]	S. aureus Col8A (Meth^S)(lac^-)	=	1
N=C(N)SCc1ccccc1SC1=C(C(=O)O)N2C(=O)[C@@H](NC(=O)CSCCCI)[C@H]2SC1 [Cmpd 134]	S. aureus Col8A (Meth^S)(lac^-)	=	0.125
O=C(Cc1ccccc1)N[C@@H]1C(=O)N2C(C(=O)O)=C(Sc3nnnn3-c3ccccc3)CS[C@H]12 [Cmpd 94]	S. aureus Col8A (Meth^S)(lac^-)	<	0.25
CSCC(=O)N[C@@H]1C(=O)N2C(C(=O)O)=C(Sc3ccccc3CSC(=N)N)CS[C@H]12 [Cmpd 127]	S. aureus Col8A (Meth^S)(lac^-)	≤	0.06
O=C(Cc1ccccc1)N[C@@H]1C(=O)N2C(C(=O)O)=C(Sc3ccccc3-c3ccccc3)CS[C@H]12 [Cmpd 9]	S. aureus Col8A (Meth^S)(lac^-)	=	0.25
O=C(O)C1=C(Sc2ccnn2-c2ccccc2)CS[C@@H]2[C@H](NC(=O)C3SCCS3)C(=O)N12 [Cmpd 115]	S. aureus Col8A (Meth^S)(lac^-)	=	0.25
CSCC(=O)N[C@@H]1C(=O)N2C(C(=O)O)=C(Sc3ccnn3-c3ccccc3)CS[C@H]12 [Cmpd 106]	S. aureus Col8A (Meth^S)(lac^-)	=	0.125
O=C(Cc1ccccc1)N[C@@H]1C(=O)N2C(C(=O)O)=C(Sc3ccc4c(c3)oc3ccccc34)CS[C@H]12 [Cmpd 7]	S. aureus Col8A (Meth^S)(lac^-)	=	0.06
O=C(Cc1ccccc1)N[C@@H]1C(=O)N2C(C(=O)O)=C(Sc3ccc(CSc4ncn[nH]4)cc3)CS[C@H]12 [Cmpd 65]	S. aureus Col8A (Meth^S)(lac^-)	<	0.25

---

- System: S. aureus Col8A (Meth^S)(lac^-)
- assay_overview: In vitro antibacterial evaluation, MIC by agar dilution, S. aureus Col8A
- Assay type: cell-based
- particulars: Staphylococcus aureus

molecule_smiles	rel	MIC (µg/mL)
O=C(Cc1ccccc1)N[C@@H]1C(=O)N2C(C(=O)O)=C(Sc3cccnc3-c3ccccc3)CS[C@H]12	<	0.25
Nc1nc(/C(=N/OC2CCCC2)C(=O)N[C@@H]2C(=O)N3C(C(=O)O)=C(Sc4cccnc4-c4ccccc4)CS[C@H]23)cs1	=	1
Cc1nnc(SCC(=O)N[C@@H]2C(=O)N3C(C(=O)O)=C(Sc4ccnn4-c4ccccc4)CS[C@H]23)s1	=	0.125
O=C(Cc1ccccc1)N[C@@H]1C(=O)N2C(C(=O)O)=C(Sc3ccccc3-c3cccs3)CS[C@H]12	<	0.25
O=C(Cc1cccs1)N[C@@H]1C(=O)N2C(C(=O)O)=C(Sc3ccccc3Br)CS[C@H]12	<	0.25
CC(C)(C)c1ccccc1SC1=C(C(=O)O)N2C(=O)[C@@H](NC(=O)Cc3ccccc3)[C@H]2SC1	<	0.25
COc1ccc(CC(=O)N[C@@H]2C(=O)N3C(C(=O)O)=C(Sc4cc(Cl)ccc4Cl)CS[C@H]23)cc1	<	0.25
NCc1ccccc1CC(=O)N[C@@H]1C(=O)N2C(C(=O)O)=C(Sc3ccnn3-c3ccccc3)CS[C@H]12	=	0.5
O=C(Cc1ccccc1)N[C@@H]1C(=O)N2C(C(=O)O)=C(Sc3ccc4ccccc4c3Br)CS[C@H]12	<	0.25
O=C(Cc1ccccc1)N[C@@H]1C(=O)N2C(C(=O)O)=C(Sc3ccc(-c4ccccc4)cc3)CS[C@H]12	<	0.125
O=C(Cc1ccccc1)N[C@@H]1C(=O)N2C(C(=O)O)=C(Sc3ccnn3-c3ccccn3)CS[C@H]12	=	0.25
CSCC(=O)N[C@@H]1C(=O)N2C(C(=O)O)=C(Sc3ccccc3CSC(=N)NC(=N)N)CS[C@H]12	=	0.125
CC(C)Oc1ccccc1SC1=C(C(=O)O)N2C(=O)[C@@H](NC(=O)Cc3ccccc3)[C@H]2SC1	<	0.25
O=C(Cc1ccccc1)N[C@@H]1C(=O)N2C(C(=O)O)=C(Sc3ccnn3-c3ccccc3)CS[C@H]12	<	0.25
COc1ccc(-n2nccc2SC2=C(C(=O)O)N3C(=O)[C@@H](NC(=O)Cc4ccccc4)[C@H]3SC2)cc1	=	0.125

---

Measured MIC of individual entries
- Tested on: S. aureus Col8A (Meth^S)(lac^-)
- assay_overview: In vitro antibacterial evaluation, MIC by agar dilution, S. aureus Col8A
- Format: cell-based
- particulars: Staphylococcus aureus
Counter-ions that a name gives are not always drawn.
property_label: MIC

compound	property_label	experimental_value
N#Cc1ccc(SC2=C(C(=O)O)N3C(=O)[C@@H](NC(=O)Cc4ccccc4)[C@H]3SC2)c(C#N)c1	MIC	< 0.25 µg/mL
O=C(Cc1ccccc1)N[C@@H]1C(=O)N2C(C(=O)O)=C(SCc3ccc(-c4ccccc4)cc3)CS[C@H]12	MIC	< 0.06 µg/mL
COc1cccc(-n2nccc2SC2=C(C(=O)O)N3C(=O)[C@@H](NC(=O)Cc4ccccc4)[C@H]3SC2)c1	MIC	0.125 µg/mL
O=C(Cc1ccccc1)N[C@@H]1C(=O)N2C(C(=O)O)=C(Sc3cccc4c3CCCC4)CS[C@H]12	MIC	< 0.25 µg/mL
N=C(N)NC(=N)SCc1ccc(SC2=C(C(=O)O)N3C(=O)[C@@H](NC(=O)Cc4ccccc4)[C@H]3SC2)c(I)c1	MIC	< 0.25 µg/mL
O=C(Cc1ccccc1)N[C@@H]1C(=O)N2C(C(=O)O)=C(Sc3ccc(C(F)(F)F)cc3)CS[C@H]12	MIC	< 0.25 µg/mL
COc1ccc(Cc2ccc(-c3ccccc3SC3=C(C(=O)O)N4C(=O)[C@@H](NC(=O)Cc5ccccc5)[C@H]4SC3)s2)cc1	MIC	< 0.25 µg/mL
Nc1nc(/C(=N/OCC2CC2)C(=O)N[C@@H]2C(=O)N3C(C(=O)O)=C(Sc4ccnn4-c4ccccc4)CS[C@H]23)cs1	MIC	0.5 µg/mL
N=C(N)SCc1cccc(SC2=C(C(=O)O)N3C(=O)[C@@H](NC(=O)Cc4ccccc4)[C@H]3SC2)c1	MIC	< 0.06 µg/mL
O=C(Cc1ccccc1)N[C@@H]1C(=O)N2C(C(=O)O)=C(Sc3ccccc3Br)CS[C@H]12	MIC	< 0.06 µg/mL
O=C(Cc1ccccc1)N[C@@H]1C(=O)N2C(C(=O)O)=C(Sc3ccccc3I)CS[C@H]12	MIC	< 0.015 µg/mL
O=C(Cc1cccs1)N[C@@H]1C(=O)N2C(C(=O)O)=C(Sc3cc(Cl)ccc3Cl)CS[C@H]12	MIC	< 0.25 µg/mL
O=C(Cc1ccccc1)N[C@@H]1C(=O)N2C(C(=O)O)=C(Sc3ccc(CSC4=NCCN4)cc3I)CS[C@H]12	MIC	< 0.25 µg/mL
N=C(N)NCCSCC(=O)N[C@@H]1C(=O)N2C(C(=O)O)=C(Sc3ccccc3CSC(=N)N)CS[C@H]12 [Cmpd 137, trifluoroacetic acid salt]	MIC	0.06 µg/mL

---

- Tested on: S. aureus Col8A (Meth^S)(lac^-)
- assay_overview: In vitro antibacterial evaluation, MIC by agar dilution, S. aureus Col8A
- Assay type: cell-based
- particulars: Staphylococcus aureus

molecule_smiles	rel	MIC [µg/mL]
O=C(Cc1ccccc1)N[C@@H]1C(=O)N2C(C(=O)O)=C(Sc3ccc(Cl)c(Cl)c3)CS[C@H]12	<	0.25
CSc1ccccc1SC1=C(C(=O)O)N2C(=O)[C@@H](NC(=O)Cc3ccccc3)[C@H]2SC1	<	0.25
Nc1nc(/C(=N/O)C(=O)N[C@@H]2C(=O)N3C(C(=O)O)=C(Sc4ccccc4-c4ccccc4)CS[C@H]23)cs1	=	0.5
O=C(Cc1ccccc1)N[C@@H]1C(=O)N2C(C(=O)O)=C(Sc3cccc4ccccc34)CS[C@H]12	<	0.25
N#CCC(=O)N[C@@H]1C(=O)N2C(C(=O)O)=C(Sc3ccccc3C#N)CS[C@H]12	=	0.5
O=C(Cc1ccccc1)N[C@@H]1C(=O)N2C(C(=O)O)=C(Sc3ccc(Br)cc3)CS[C@H]12	=	0.03
N=C(N)SCc1ccc(SC2=C(C(=O)O)N3C(=O)[C@@H](NC(=O)Cc4ccccc4)[C@H]3SC2)c(I)c1	<	0.25
